Sourced from ChEMBL document CHEMBL5113482

System: SCC-25
EXPERIMENTAL_DETAILS: Antiproliferative activity against human SCC-25 cells assessed as cell growth inhibition measured after 48 hrs by MTT assay
Format: functional, cell-based
TEST_PARAMETERS: SCC-25, 48 h
EXPERIMENTAL_ENDPOINT: pIC50
pIC50 field: float, defined as -log10 of concentration (mol/L).

Ask | Fill in: pIC50 of `O=C(NC1CCCCC1)c1[nH]cnc1-c1nc2ccccc2[nH]1` is ___
Reply | 4.73
